# TGT: truncated human beta-secretase (residues 1-458, His6-tagged at the C-terminus) (Homo sapiens, UniProt P56817)
# Construct: truncated human beta-secretase (residues 1-458, His6-tagged at the C-terminus); His6 (C); made in house; host or cells: insect cells D. melanogaster S2 (baculovirus expression system (so in the source))
# Sequence (P56817 22-458): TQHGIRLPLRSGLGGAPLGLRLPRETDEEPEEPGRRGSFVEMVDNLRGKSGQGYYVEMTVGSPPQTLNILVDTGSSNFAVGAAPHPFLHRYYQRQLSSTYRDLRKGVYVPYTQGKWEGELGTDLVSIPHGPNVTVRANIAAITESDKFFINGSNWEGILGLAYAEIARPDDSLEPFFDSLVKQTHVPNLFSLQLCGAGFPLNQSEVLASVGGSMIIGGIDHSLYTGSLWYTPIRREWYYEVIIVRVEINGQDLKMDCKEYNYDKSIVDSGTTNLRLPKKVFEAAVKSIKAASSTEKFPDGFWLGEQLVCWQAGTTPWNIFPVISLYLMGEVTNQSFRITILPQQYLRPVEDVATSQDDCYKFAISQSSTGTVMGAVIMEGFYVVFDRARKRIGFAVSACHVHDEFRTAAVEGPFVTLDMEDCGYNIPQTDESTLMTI
# ASSAY_OVERVIEW: BACE fluorescence quench assay
# Assay type: biochemical
# TEST_CONDITIONS: in vitro enzyme activity, BACE fluorescence assay, pH 4.5; read-out: IC50
pIC50: −log10 of the molar value.
Listing of recorded pIC50 by entry.

Consider the worked cases shown below.
INSERT INTO results (compound, measured_endpoint, data_value) VALUES
  ('CN1OC2(CC3(CCCc4ccccc4C3)Oc3ccc(Br)cc32)N=C1N (centres unmarked)', 'pIC50', '6.00 to 6.30'),
  ('CC1CC[C@]2(CO1)C[C@]1(N=C(N)N(C)O1)c1cc(-c3cccc(Cl)c3)ccc1O2 (some centres unmarked)', 'pIC50', '6.30 to 7.00'),
  ('N#Cc1cccc(-c2ccc3c(c2)C2(CC(c4ccccc4)O3)N=C(N)N(CCC3CC3)C2=O)c1 (centres unmarked)', 'pIC50', '6.30 to 7.00'),
  ('Cc1ccc(C#N)cc1-c1ccc2c(c1)C1(CC3(CCCOC3)O2)N=C(N)N(C)C1=O (centres unmarked)', 'pIC50', '6.00 to 6.30'),
  ('Cc1cccc(-c2ccc3c(c2)[C@]2(C[C@@]4(CCCOC4)O3)N=C(N)N(C)C2=O)c1C', 'pIC50', '5.00 to 5.30'),
  ('CN1OC2(CC(C3CCOC(C)(C)C3)Oc3ccc(-c4cccc(C#N)n4)cc32)N=C1N (centres unmarked)', 'pIC50', '5.30 to 6.00'),
  ('CN1OC2(CC(c3ccccc3)Oc3ccc(-c4ccc(F)c(C#N)c4)cc32)N=C1N (centres unmarked)', 'pIC50', '5.00 to 5.30');

Now let's try a different one.
What value of measured pIC50 is listed for CN1OC2(C[C@H](C3CCOC(C)(C)C3)Oc3ccc(-c4ccc5cn[nH]c5c4)cc32)N=C1N (some centres unmarked) ?
6.00 to 6.30
